- assayedSystem: T1, human GM-CSFRα (human, UniProt P15509 23-400)
- T1 sequence: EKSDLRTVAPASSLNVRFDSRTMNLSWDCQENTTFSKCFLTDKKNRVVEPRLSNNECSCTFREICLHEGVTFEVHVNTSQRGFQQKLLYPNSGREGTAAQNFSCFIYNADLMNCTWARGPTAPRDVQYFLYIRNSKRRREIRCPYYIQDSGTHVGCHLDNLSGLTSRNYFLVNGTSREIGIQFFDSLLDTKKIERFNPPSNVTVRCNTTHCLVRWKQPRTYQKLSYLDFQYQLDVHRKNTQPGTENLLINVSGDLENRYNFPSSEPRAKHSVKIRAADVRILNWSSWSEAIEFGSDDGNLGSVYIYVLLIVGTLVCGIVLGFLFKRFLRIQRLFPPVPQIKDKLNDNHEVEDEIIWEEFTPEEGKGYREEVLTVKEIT
- experimentSummary: cell-based or functional assay
quantityMeasured: IC50, human granulocyte shape change assay (7 pM human GM-CSF) (pM)

binder	testValue
Antibody 16 (antibody, V domains shown, also called Ab16) VH: QVQLVQSGAEVKKPGASVKVSCKISGHSLSELSIHWVRQTPTKGFEWMGGFDPEENEIVYAQRFQGRVTMTEDTSIDTAYLTLSSLRSDDTAVYYCSIVGSFSPLTMGLWGKGTMVTVSS VL: QAVLTQPSSVSGAPGQRVTISCTGSGSNIGAPYDVSWYQQLPGTAPKLLIYHNNKRPSGVPDRFSASKSGTSASLAITGLQAEDEADYYCATSDEILSGSVFGGGTKVTVL	16
Antibody 9 (antibody, V domains shown) VH: QVQLVQSGAEVKKPGASVKVSCKISGHSLSELSIHWVRQTPTKGFEWMGGFDPEENEIVYAQRFQGRVTMTEDTSIDTAYLTLSSLRSDDTAVYYCAIVGSFSPVTYGLWGQGTMVTVSS VL: QAVLTQPSSVSGAPGQRVTISCTGSGSNIGAPYDVSWYQQLPGTAPKLLIYHNNKRPSGVPDRFSASKSGTSASLAITGLQADDEADYYCQSYDSSLSGSVFGGGTKVTVL	44
Antibody 11 (antibody, V domains shown) VH: QVQLVQSGAEVKKPEASVKVSCKIPGHSLSELSIHWVRQTPTKGFEWMGGFDPEENEIVYAQRFQGRVTMTEDTSIDTAYLTLSSLRSDDTAVYYCAIVGSFSPITYGLWGKGTMVTVSS VL: QAVLTQPSSVSGVPGQRVTISCTGSGSNIGAPYDVSWYQQLPGTAPKLLIYHNNKRPSGVPDRFSASKSGTSASLAITGLQADDEADYYCQSYDSSLSGSVFGGGTKVTVL	90
Antibody 10 (antibody, V domains shown, also called Ab10) VH: QVQLVQSGAEVKKPGASVKVSCKISGHSLSELSIHWVRQTPTKGFEWMGGFDPEENEIVYAQRFQGRVTMTEDTSIDTAYLTLSSLRSDDTAVYYCAIVGSFSGLAYRPWGKGTMVTISS VL: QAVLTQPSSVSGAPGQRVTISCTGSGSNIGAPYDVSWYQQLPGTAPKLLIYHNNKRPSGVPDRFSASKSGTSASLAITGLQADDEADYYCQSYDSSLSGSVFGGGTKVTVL	62
Antibody 5 (antibody, V domains shown, also called Antibody 05; Ab5) VH: QVQLVQSGAEVKKPGASVKVSCKISGHSLSELSIHWVRQTPTKGFEWMGGFDPEENEIVYAQRFQGRVTMTEDTSIDTAYLTLSSLRSDDTAVYYCAIVGSFSGYPYRPWGQGTMVTVSS VL: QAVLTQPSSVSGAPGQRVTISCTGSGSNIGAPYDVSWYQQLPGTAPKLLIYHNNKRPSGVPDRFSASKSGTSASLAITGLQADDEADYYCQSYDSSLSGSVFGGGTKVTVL	30
